EXPERIMENTAL TARGET: Phosphatidylinositol 4,5-bisphosphate 3-kinase catalytic subunit alpha isoform (Homo sapiens)
Sequence (P42336 whole entry, canonical isoform): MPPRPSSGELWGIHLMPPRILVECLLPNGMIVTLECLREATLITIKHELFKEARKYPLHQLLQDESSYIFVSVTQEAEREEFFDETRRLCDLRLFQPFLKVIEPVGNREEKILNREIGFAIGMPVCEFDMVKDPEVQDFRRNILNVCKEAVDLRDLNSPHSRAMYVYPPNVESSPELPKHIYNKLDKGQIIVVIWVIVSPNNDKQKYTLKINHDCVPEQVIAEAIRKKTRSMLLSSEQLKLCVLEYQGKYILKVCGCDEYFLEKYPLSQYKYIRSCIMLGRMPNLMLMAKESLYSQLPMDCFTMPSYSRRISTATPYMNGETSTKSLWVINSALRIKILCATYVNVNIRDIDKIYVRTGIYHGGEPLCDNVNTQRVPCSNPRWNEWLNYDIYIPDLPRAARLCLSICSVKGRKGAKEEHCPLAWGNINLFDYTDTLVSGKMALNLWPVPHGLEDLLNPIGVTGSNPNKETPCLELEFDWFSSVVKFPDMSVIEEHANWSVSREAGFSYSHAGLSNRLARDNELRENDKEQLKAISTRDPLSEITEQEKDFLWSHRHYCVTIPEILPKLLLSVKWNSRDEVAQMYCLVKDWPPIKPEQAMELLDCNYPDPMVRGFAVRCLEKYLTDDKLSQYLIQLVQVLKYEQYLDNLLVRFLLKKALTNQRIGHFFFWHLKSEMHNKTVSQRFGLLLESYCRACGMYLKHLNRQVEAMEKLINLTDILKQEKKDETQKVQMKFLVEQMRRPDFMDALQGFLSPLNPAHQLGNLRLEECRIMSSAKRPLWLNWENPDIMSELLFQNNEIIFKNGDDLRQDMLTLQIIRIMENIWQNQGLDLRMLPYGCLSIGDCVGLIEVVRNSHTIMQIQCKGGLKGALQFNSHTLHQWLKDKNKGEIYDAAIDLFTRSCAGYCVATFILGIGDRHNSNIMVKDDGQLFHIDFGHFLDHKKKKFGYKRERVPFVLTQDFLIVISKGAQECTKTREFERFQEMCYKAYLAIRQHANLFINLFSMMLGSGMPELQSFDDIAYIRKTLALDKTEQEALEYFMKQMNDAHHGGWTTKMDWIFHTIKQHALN
EXPERIMENT DESCRIPTION: Inhibition of PI3K alpha (unknown origin) using lipid substrate measured after 40 mins in presence of ATP by Kinase-Glo plus reagent based luminescence assay
Task for the reader: assign each of the following compounds its reported pIC50.
On this scale, pIC50 is minus log10 of a concentration expressed in M (mol/L).

# input Reported pIC50 for COc1ncc(-c2ccc3ncnc(NCCN4CCOCC4)c3c2)cc1NS(C)(=O)=O : what is it?
# output 8.35

# input Reported pIC50 for COc1ncc(-c2ccc3ncnc(N[C@H]4CCN(C(=O)C5CC5)C4)c3c2)cc1NS(C)(=O)=O : what is it?
# output 9.00

# input Reported pIC50 for COc1ncc(-c2ccc3ncnc(NC4CCN(C(=O)C5CCCC5)CC4)c3c2)cc1NS(C)(=O)=O : what is it?
# output 8.55

# input Reported pIC50 for COc1ncc(-c2ccc3ncnc(N(C)CCN(C)C)c3c2)cc1NS(C)(=O)=O : what is it?
# output 8.11

# input Reported pIC50 for COc1ncc(-c2ccc3ncnc(N[C@H]4CCN(C(=O)C5CCCC5)C4)c3c2)cc1NS(C)(=O)=O : what is it?
# output 8.64

# input Reported pIC50 for COc1ncc(-c2ccc3ncnc(N[C@H]4CCN(C(C)=O)C4)c3c2)cc1NS(C)(=O)=O : what is it?
# output 9.30

# input Reported pIC50 for COc1ncc(-c2ccc3ncnc(NCCN4CCOCC4)c3c2)cc1NS(=O)(=O)C1CC1 : what is it?
# output 8.15

# input Reported pIC50 for COc1ncc(-c2ccc3ncnc(NC4CCNCC4)c3c2)cc1NS(C)(=O)=O : what is it?
# output 9.05

# input Reported pIC50 for COc1ncc(-c2ccc3ncnc(N[C@H]4CCN(C(=O)C5CCOCC5)C4)c3c2)cc1NS(C)(=O)=O : what is it?
# output 9.15

From: ChEMBL document CHEMBL4304761
